Assay: Raw material test against sweat odour (masking of malodour standard, assessor panel)
Details: Table 1; 1 μl fragrance + 5 μl 3-mercapto-3-methyl-hexan-1-ol (0.1% in DPG) in 7 l air, 15 h at approx. 20° C.; scale 1 to 9, malodour standard mixture = 6; mean of at least 8 assessors
Quantity measured: Odour reduction value
Form: value (number only, do not type unit).

Study these solved cases before continuing.
[
  {
    "Compound": "COCc1ccccc1O [2-METHOXYMETHYLPHENOL]",
    "Odour reduction value": 3.8
  },
  {
    "Compound": "CCOC(=O)C1=C(C)C=CCC1(C)C",
    "Odour reduction value": 3.0
  },
  {
    "Compound": "CC1=CC(C)C(C(=O)C(C)(C)C)CC1 (stereo not drawn)",
    "Odour reduction value": 3.5
  },
  {
    "Compound": "COC1(OC)CCCCCCCCCCC1 [CYCLODODECANONE DIMETHYL KETAL]",
    "Odour reduction value": 4.0
  }
]

Data point: CC(C)=CCCC(C)=CCCC(C)C=O (stereo not drawn) ; Odour reduction value = 3.8

CC1OC(C)C2Cc3ccccc3C2O1 (stereo not drawn) has a reported Odour reduction value of 4.1

Lookup result for CCC/C=C/C=O [(E)-2-HEXENAL] ; measured Odour reduction value: 3.1

The value of Odour reduction value measured for the compound CC(C)CCOC(=O)c1ccccc1O [SALICYLIC ACID 3-METHYLBUTYL ESTER] turned out to be 3.3

Input CC(=O)OCCC(C)C [ACETIC ACID-3-METHYLBUTYL ESTER] . Output Odour reduction value: 5.8

Item: CC1=CCC=C(C)C(O)CCC=C(C)CC1 (stereo not drawn) | Odour reduction value: 4.5

Odour reduction value reading for CCOC(=O)OC1C(C)CCC(C)C1C (stereo not drawn) : 4.6

C/C=C/C(=O)OC(C)CC(C)C (stereo not drawn) [CROTONIC ACID-4-METHYL-2-[…]] yielded Odour reduction value of 3.5
